test system: MCF7 CARM1 KO cells; test: Quantitative MS of ADMA-containing peptides in MCF7 CARM1 KO cells expressing CARM1 28-608 or CARM1 140-608, and in CARM1 KO; format: cell-based, human; settings: KO vs WT, mean of 3 replicates, log2
We use -2 as the dividing line for KO/WT: on or above the line is satisfied, below is not satisfied.

>  <SUBSTANCE>
QLrYQQPGPGSSPSSFLLK

>  <CATEGORY>
not satisfied

$$$$
>  <SUBSTANCE>
TATVTIrPNTSGSGGTTSNSQVITGPQIrPGMTVIRTPLQQSTLGK

>  <CATEGORY>
satisfied

$$$$
>  <SUBSTANCE>
IPYPAGTLPNPLLPHPLHENEVLrHQLFAAPYR

>  <CATEGORY>
satisfied

$$$$

Qu. Check if KO/WT >= -2 (inclusive). Item: GArLPGPVSSAR
Ans. not satisfied

Qu. Entry to check: APPGGLHAPrLSLEGAAR
Ans. not satisfied

Qu. Item: VELPTCMYrLPNVHGR
Ans. not satisfied

---

test system: MCF7 cells; test: Quantitative nanoLC-MS/MS (TMT) of ADMA-containing peptides, CARM1 KO vs parental; type: cell-based, human; parameters: scale not given here; details: ADMA-containing peptide, MCF7, CARM1 knockout (KO1-3) vs wild type (WT1-3), TMT 6-plex experiment #1
MEASUREMENT NAME: Fold change KO/WT
Form: value (number only, do not type unit).

// solved cases for Fold change KO/WT follow
>  <SUBSTANCE>
LITFQLrHILK

>  <Fold change KO/WT>
-5.219

$$$$
>  <SUBSTANCE>
NrGFYPWGQYNrGGYGNYR

>  <Fold change KO/WT>
-0.1483

$$$$
>  <SUBSTANCE>
AFHDYSAAAAPSPVLGNIPPNDGMPGGPIPPGFFQPFMSPrYAGGPrPPIR

>  <Fold change KO/WT>
-2.246

$$$$

Qu. Quick check: Fold change KO/WT of GrGTLTrGAFVGATAAPGYIAPGYGTPYGYSTAAPAYGLPKR ?
Ans. -0.6705

Qu. Moving on to the next substance: MAPALSGANLTSPrVPLSAYER
Ans. -4.135

Qu. Let us now turn to QGQPTPLVIQQPPKPGALIrPPQVTLTQTPMVALrQPHNR
Ans. -2.284

Qu. Next: SPFLGSArPrLR
Ans. -3.721

Qu. Also check LGQDPYrLGHDPYR
Ans. -1.973

Qu. Next up: RPEFMrGGGSGGGR
Ans. 0.64

---

system: MCF7 CARM1 KO cells; test: Quantitative MS of ADMA-containing peptides in MCF7 CARM1 KO cells expressing CARM1 28-608 or CARM1 140-608, and in CARM1 KO; type: cell-based, human; conditions: CARM1 140-608 vs WT, mean of 3 replicates (log2 scale)
CARM1 140-608/WT: recorded values

The following substances have reported results that may help.
>  <SUBSTANCE>
APGPrGSYLGGYSAGrGIYSR

>  <CARM1 140-608/WT>
0.2879

$$$$
>  <SUBSTANCE>
EPFLSrDPFHSLK

>  <CARM1 140-608/WT>
0.7405

$$$$
>  <SUBSTANCE>
GTVVTPVQVPLLPVPSQPrPAVGPQrFPGPPEFPQHTPGPVPNSFSQPPrLPLQDQWrAPPPPQDR

>  <CARM1 140-608/WT>
-1.653

$$$$
>  <SUBSTANCE>
MGTPVPRPPQDMGQIGVrTPLGPR

>  <CARM1 140-608/WT>
-1.0135

$$$$
>  <SUBSTANCE>
FIQPrPTLNQPPPPLIrPANSMPPR

>  <CARM1 140-608/WT>
0.9302

$$$$
>  <SUBSTANCE>
SAPWNSFLPPPPPMPGPrLGPGKPGLK

>  <CARM1 140-608/WT>
-1.2

$$$$
>  <SUBSTANCE>
KPLPLGVrAPLAGPSAAAR

>  <CARM1 140-608/WT>
-2.373

$$$$
>  <SUBSTANCE>
NVNPVILLNTQTrPYGFGLNHGHTPYSSMLNQGLGVPGIGATQGLrTGFTNIPSrYGTNNR

>  <CARM1 140-608/WT>
-1.7448

$$$$

Qu. Item YRPYDGAASAYAQNYrYPEPERPSSR with MCF7 CARM1 KO cells - CARM1 140-608/WT?
Ans. -1.157

Qu. Moving on to the next substance: APGPrGSYLGGYSAGR
Ans. -0.09328

Qu. Check VFrYSTSLEK too.
Ans. 0.01169

---

system: MCF7 cells; assay: Quantitative nanoLC-MS/MS (TMT) of ADMA-containing peptides, CARM1 KO vs parental; format: cell-based, human; design: scale not given here; settings: ADMA-containing peptide, MCF7, CARM1 knockout (KO1-3) vs wild type (WT1-3), TMT 6-plex experiment #1
Parameter class (string): assigned from measured Fold change KO/WT. Ranges: Low (below -3), Mid (-3 to below -1), High (-1 or more)

>  <SUBSTANCE>
ELSHPPLYrLPLLENAETPQ

>  <CATEGORY>
Low

$$$$
>  <SUBSTANCE>
ATSVLPrYGPPCLFK

>  <CATEGORY>
Low

$$$$
>  <SUBSTANCE>
LINFQNHSPKPNGPVLPPHPQQLrYPPNQNIPR

>  <CATEGORY>
High

$$$$
>  <SUBSTANCE>
LVPrLSVGAVSSKPTTPTIATPQTVSVPNK

>  <CATEGORY>
Mid

$$$$
>  <SUBSTANCE>
LGHDAYrLGQDPYR

>  <CATEGORY>
Mid

$$$$

Qu. Consider GVVNTAVSAAVQAVrGrGrGTLTr . To which Fold change KO/WT class does it belong?
Ans. High

Qu. Proceed to FGDMSYSIrHSISMPAMR
Ans. Low

Qu. Try this substance next: HQQLQQMrMQQPPAPVPTTTTTTQQHPrQAAPQMLQQQPPrLISVQTMQR
Ans. Mid

Qu. Also SAPWNSFLPPPPPMPGPrLGPGKPGLK ?
Ans. Mid

Qu. Entry TDGFAEAIHSPQVAGVPrFR please
Ans. Mid

Qu. Entry to check: YCLTAPNYrLK
Ans. High

Qu. Same for LAQDPYrLGHDPYR
Ans. High

Qu. Repeat for the following substance: VrINLQQQPPPLQIK
Ans. Low

Qu. Same for LSLPPIHTLYQPrFGNSQSFTSK
Ans. Mid

Qu. Similarly, FrPNPLNNPR ?
Ans. High

Qu. Input QAPrDGLTPVPPLAPAPrPPSSGLPAVLNPrPTLTPGrLPTPTLGTArAPMPTPTLVrPLLK
Ans. Low

Qu. Further, for DGLTPVPPLAPAPrPPSSGLPAVLNPrPTLTPGrLPTPTLGTArAPMPTPTLVrPLLK ?
Ans. Low

Qu. Same lookup for TAAALAPASLTSArMAPALSGANLTSPrVPLSAYER , please.
Ans. Low

Qu. Param item: LINFQNHSPKPNGPVLPPHPQQLrYPPNQNIPrQAIKPNPLQMAFLAQQAIK
Ans. Mid

Qu. What do you get for ITVPrLSVGSVTSrPSTPTLGTPTPQTMSVSTK ?
Ans. Mid

Qu. Record: GASQAGMTGYGMPrQIL
Ans. Mid

Qu. Same for FAPrGAPHFrFIIAGR
Ans. High

---

test system: MCF7 cells; test: Quantitative nanoLC-MS/MS (TMT) of ADMA-containing peptides, CARM1 KO vs parental; assay type: cell-based, human; parameters: scale not given here; conditions: MCF7, CARM1 knockout vs wild type, n = 3 each
Rule for this label: YES means Fold change KO/WT is less than -2; NO means Fold change KO/WT is at least -2.

Some solved entries appear below for comparison.
>  <SUBSTANCE>
TVPMGGVrLVTPVTVSAVKPAVTTLVVK

>  <CATEGORY>
YES

$$$$
>  <SUBSTANCE>
LDrICEGIRPQIMNGPLHPRPLVALLDGR

>  <CATEGORY>
NO

$$$$
>  <SUBSTANCE>
GPPLArLPHDPGVFR

>  <CATEGORY>
NO

$$$$
>  <SUBSTANCE>
AQPFAQPPGPWPLSSPGPrLVFNR

>  <CATEGORY>
YES

$$$$
>  <SUBSTANCE>
TYQASSAAFrYTAGTPYK

>  <CATEGORY>
YES

$$$$

Qu. Regarding APPVrYCIPGER , kindly confirm whether its Fold change KO/WT is beneath -2.
Ans. YES

Qu. Another substance to look at: SSGSPYGGGYGSGGGSGGYGSrRF
Ans. NO
